Where do the numbers come from? From patent US12240844B2.

- assay_system: LRRK2 (G2019S) (Homo sapiens, UniProt Q5S007, G2019S)
- Sequence (Q5S007 970-2527 G2019S limits assumed): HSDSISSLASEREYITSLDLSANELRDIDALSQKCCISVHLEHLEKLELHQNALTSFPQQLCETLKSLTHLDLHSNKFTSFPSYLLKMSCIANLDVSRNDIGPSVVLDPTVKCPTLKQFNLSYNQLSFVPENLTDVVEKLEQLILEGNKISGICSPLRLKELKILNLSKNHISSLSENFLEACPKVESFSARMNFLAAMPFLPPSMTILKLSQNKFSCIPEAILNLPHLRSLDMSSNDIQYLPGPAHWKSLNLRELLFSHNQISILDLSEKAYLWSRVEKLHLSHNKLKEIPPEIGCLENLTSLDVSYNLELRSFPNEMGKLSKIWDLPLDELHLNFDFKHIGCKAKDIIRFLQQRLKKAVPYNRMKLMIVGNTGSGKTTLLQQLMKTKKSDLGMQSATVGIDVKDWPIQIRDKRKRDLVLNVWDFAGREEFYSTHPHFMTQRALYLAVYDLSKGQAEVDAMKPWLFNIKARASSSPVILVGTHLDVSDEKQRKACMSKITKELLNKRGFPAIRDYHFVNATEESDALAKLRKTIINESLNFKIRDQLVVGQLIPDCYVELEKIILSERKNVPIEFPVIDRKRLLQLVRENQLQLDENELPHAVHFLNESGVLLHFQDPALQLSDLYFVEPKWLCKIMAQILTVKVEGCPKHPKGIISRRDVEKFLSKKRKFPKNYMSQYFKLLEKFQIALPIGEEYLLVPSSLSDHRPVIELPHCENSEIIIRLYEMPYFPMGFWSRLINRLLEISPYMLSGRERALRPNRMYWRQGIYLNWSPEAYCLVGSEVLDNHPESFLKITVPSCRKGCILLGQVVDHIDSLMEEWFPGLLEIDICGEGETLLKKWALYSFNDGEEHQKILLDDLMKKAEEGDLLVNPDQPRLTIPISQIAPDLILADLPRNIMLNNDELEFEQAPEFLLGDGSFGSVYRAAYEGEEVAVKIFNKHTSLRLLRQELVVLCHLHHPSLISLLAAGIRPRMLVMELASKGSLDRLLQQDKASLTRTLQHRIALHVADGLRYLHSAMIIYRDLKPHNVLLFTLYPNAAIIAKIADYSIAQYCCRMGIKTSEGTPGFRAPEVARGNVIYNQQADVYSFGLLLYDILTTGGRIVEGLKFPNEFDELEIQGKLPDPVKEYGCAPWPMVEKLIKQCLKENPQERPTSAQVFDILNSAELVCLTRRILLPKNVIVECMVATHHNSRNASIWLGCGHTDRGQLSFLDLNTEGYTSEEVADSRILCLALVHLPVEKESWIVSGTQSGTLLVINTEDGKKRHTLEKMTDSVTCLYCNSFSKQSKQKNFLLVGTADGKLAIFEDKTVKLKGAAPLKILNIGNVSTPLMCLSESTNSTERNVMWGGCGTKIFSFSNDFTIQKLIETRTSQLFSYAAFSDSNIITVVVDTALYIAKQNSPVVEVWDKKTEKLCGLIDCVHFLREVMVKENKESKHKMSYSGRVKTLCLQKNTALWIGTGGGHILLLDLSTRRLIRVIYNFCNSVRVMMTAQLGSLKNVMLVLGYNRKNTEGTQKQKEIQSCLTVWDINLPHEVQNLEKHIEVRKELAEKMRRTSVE
- measurement_description: LRRK2 G2019S enzyme inhibition, ADP-Glo kinase assay
pIC50: −log10 of the molar value.
assay_endpoint: pIC50

As a guide, the following entries are already answered.
smiles_notation	assay_system	pIC50
COc1cc(S(C)(=O)=O)ccc1Nc1cc(NC2CC2)c2c(Cl)c[nH]c2n1	LRRK2 (G2019S) (Homo sapiens, UniProt Q5S007, G2019S)	6.00 to 6.52
CNc1cc(Nc2ccc(C(=O)N3CCOCC3)c3c2OCCO3)nc2[nH]ccc12	LRRK2 (G2019S) (Homo sapiens, UniProt Q5S007, G2019S)	> 7.00
CNc1cc(Nc2ccc(S(=O)(=O)N3CCC(N4CCOCC4)CC3)cc2OC)nc2[nH]cc(Cl)c12	LRRK2 (G2019S) (Homo sapiens, UniProt Q5S007, G2019S)	> 7.00
COc1cc(S(C)(=O)=O)ccc1Nc1cc(C2CC2)c2c(C(F)(F)F)c[nH]c2n1	LRRK2 (G2019S) (Homo sapiens, UniProt Q5S007, G2019S)	6.00 to 6.52
CNc1cc(Nc2ccc(C(=O)N3CCC(N4CCOCC4)CC3)c3c2OCC3)nc2[nH]cc(C(F)(F)F)c12	LRRK2 (G2019S) (Homo sapiens, UniProt Q5S007, G2019S)	> 7.00

Under LRRK2 (G2019S) (Homo sapiens, UniProt Q5S007, G2019S), report pIC50 for "COCCNc1cc(Nc2ccc(P3(=O)CCN(C4CCOCC4)CC3)cc2OC)nc2[nH]cc(C(F)(F)F)c12"
6.52 to 7.00

Under LRRK2 (G2019S) (Homo sapiens, UniProt Q5S007, G2019S), report pIC50 for "COc1cc(S(C)(=O)=O)ccc1Nc1cc(NC2CC2)c2cc[nH]c2n1"
6.00 to 6.52

Under LRRK2 (G2019S) (Homo sapiens, UniProt Q5S007, G2019S), report pIC50 for "CNc1cc(Nc2ccc(C(=O)N3CC[C@@H](N4CCOCC4)C3)c3c2OCC3)nc2[nH]cc(C(F)(F)F)c12"
> 7.00
